# study system: T1, 4H56-bN
# T1 chain: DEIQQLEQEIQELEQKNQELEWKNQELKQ
# test summary: two-hybrid library CCNG1;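 note: natural log of median RNA to DNA barcode read ratio; higher means stronger binding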
Exercise: state measured interaction score for each of the binders provided.
API note: the answer field is a bare number with no unit suffix.

Reported interaction score ( DKNQQLEQKIQELEQKNQELEWKIQELEQ [4H3381-bN] ) = -1.09

Reported interaction score ( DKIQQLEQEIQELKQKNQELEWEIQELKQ [4H2162-bN] ) = -0.33

Reported interaction score ( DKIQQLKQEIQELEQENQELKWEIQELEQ [4H2585-bN] ) = -0.978

Reported interaction score ( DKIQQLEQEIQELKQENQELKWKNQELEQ [4H2143-bN] ) = -0.695

Reported interaction score ( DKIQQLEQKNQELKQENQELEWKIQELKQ [4H2518-bN] ) = -0.0872

Reported interaction score ( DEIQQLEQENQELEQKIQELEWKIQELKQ [4H166-bN] ) = -0.199

Reported interaction score ( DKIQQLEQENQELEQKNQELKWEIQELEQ [4H2233-bN] ) = -0.577

Reported interaction score ( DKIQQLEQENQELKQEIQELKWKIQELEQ [4H2253-bN] ) = -0.248

Reported interaction score ( DKNQQLEQKIQELEQKIQELEWENQELKQ [4H3364-bN] ) = -0.197

Reported interaction score ( DKNQQLEQENQELKQKIQELEWEIQELEQ [4H3297-bN] ) = -0.798

Reported interaction score ( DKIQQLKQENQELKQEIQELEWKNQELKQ [4H2760-bN] ) = -0.482

Reported interaction score ( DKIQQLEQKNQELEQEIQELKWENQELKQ [4H2444-bN] ) = 0.273

Reported interaction score ( DEIQQLEQKIQELEQEIQELEWKNQELKQ [4H264-bN] ) = 0.479

Reported interaction score ( DKIQQLKQKIQELEQKIQELKWENQELEQ [4H2859-bN] ) = 0.857
